- Test system: C. trachomatis D323
- Method notes: Activity on Chlamydia trachomatis in McCoy and L929 cell cultures
- Format: cell-based
- Test context: 100 mg/l; 48 hours; cell control 8000, infected cell control 6400
Assay endpoint: number of cells in 100 fields (unchanged cells)
Hey, just send me the number, nothing else.

Structure smiles string: O=[N+]([O-])c1ccc(C2c3c(O)nc(S)nc3Oc3nc(S)nc(O)c32)cc1
Test value: 7360
//
Structure smiles string: Oc1nc(O)c2c(n1)Oc1nc(O)nc(O)c1C2c1ccc(Cl)cc1
Test value: 6560
//
Structure smiles string: O=[N+]([O-])c1ccc(C2c3c(O)nc(O)nc3Oc3nc(O)nc(O)c32)cc1
Test value: 7640

As a next step, examine the compound that follows.
The compound "Oc1nc(S)nc2c1C(c1ccc(Cl)cc1)c1c(O)nc(S)nc1O2" , when measured on C. trachomatis D323, yielded number of cells in 100 fields (unchanged cells) of 7360

Source of measurements: patent US6340755B1
